Experiment: Antiproliferative activity against human OCI-Ly8-LAM53 cells assessed as growth inhibition after 72 hrs by Cell Titer Glo assay
Type: functional, cell-based
VALUE TYPE: IC50 (µM)
One number for each entry, in µM.

List the reported IC50 of each compound below.
1. Cc1ccc(-c2[nH]oc(=O)c2Cc2c(O)ccc3cc(Br)ccc23)cc1
2. Cc1ccc(-c2[nH][nH]c(=O)c2Cc2c(O)ccc3cc(-c4ccccc4)ccc23)cc1
3. COc1cc2ccccc2c(Cc2c(-c3ccc(C)cc3)[nH][nH]c2=O)c1O

Output line:
1: 7; 2: 34; 3: 32

====

Assay: Antiproliferative activity against human Mutu cells assessed as growth inhibition after 72 hrs by Cell Titer Glo assay
Assay type: functional, cell-based
VALUE TYPE: pIC50
Answers are plain numbers, as −log10 of the molar value.

{"LINE NOTATION": "COc1cc2ccccc2c(Cc2c(-c3ccc(C)cc3)[nH][nH]c2=O)c1O", "pIC50": 4.82}
{"LINE NOTATION": "Cc1ccc(-c2[nH]oc(=O)c2Cc2c(O)ccc3cc(Br)ccc23)cc1", "pIC50": 5.52}

Then there is this molecule:
Input line: Answer with the recorded pIC50 of Cc1ccc(-c2[nH][nH]c(=O)c2Cc2c(O)ccc3cc(-c4ccccc4)ccc23)cc1 only.
Output line: 4.48

Where do these numbers come from? They come from ChEMBL document CHEMBL3232806.
